The reported measurements were obtained from PubChem BioAssay (NCI).

- Test system: SF-268 CNS
- protocol description: NCI-60 one-dose screen, 48 h (100 = growth as untreated, 0 = no growth, -100 = all killed)
- test context: 10 µM
This is part of a sample that, as a whole, favours compounds with a hit. Of some 83,000 tested, about 20% had one in any assay.
experimental readout: growth (%)

> print(dat)
                                    compound  experimental.readout  units.text  readout.number
 1  CC1(C)Cc2c(cn(Cc3ccccc3)c2-c2ccccc2)-c2oncc21                growth           %             107
 2  Cc1nc2scc(-c3ccc(Cl)cc3)n2c(=O)c1CCN1CCOCC1                growth           %             102
 3  COc1ccc(NC(=O)CCn2cnc3c(cc(-c4ccccc4)n3-c3ccccc3)c2=O)cc1                growth           %            24.5
 4  COc1ccc(-c2[nH]ncc2-c2cc(OC)c(OC)c(OC)c2)cc1                growth           %              16
 5  CCC(O)c1ccc(Br)cc1NC(=O)c1cccc(Cl)c1 (stereo not drawn)                growth           %            18.7
 6  COc1cc(C2C=C(c3ccc(Cl)c(Cl)c3)N=C3SC(C)=CN32)cc(OC)c1OC (stereo not drawn)                growth           %            87.8
 7   COc1ccc(Nc2nc(NCc3ccccc3)c3ccccc3n2)cc1                growth           %            31.3
 8  C#CCn1c(-c2cccc(OCCCCl)c2)nc2c1c(=O)n(C)c(=O)n2C                growth           %            67.1
 9  CCCC(C)c1ccc(OCCCCCCN2CCNCC2)cc1 (stereo not drawn)                growth           %            70.4
10        N=C(N)c1ccc(-c2ccc(-c3ccccc3)s2)s1                growth           %           -56.6
11  FC(F)(F)c1ccc(-c2ncc(-c3ccc(C(F)(F)F)cc3)c(NCc3cc(C(F)(F)F)cc(C(F)(F)F)c3)n2)cc1                growth           %            69.3
12      N=C(N)c1ccc(-c2ccc(-c3ccccc3)s2)cc1F                growth           %           -84.6
13  C=CCNCCCN1C(=O)c2ccc3c4c(ccc(c24)C1=O)C(=O)N(CCCNCC=C)C3=O                growth           %           -22.1
14  Cc1cc(C)c(/C=C2\C(=O)Nc3ccc(NC(=O)CCCCCCC(=O)NO)cc32)[nH]1                growth           %            22.8
15   CN(C)CCCN(Cc1ccccc1O)C(=S)Nc1ccc(Cl)cc1                growth           %             102
16  COC(=O)c1cnc2c(c1)Oc1ccc(Cl)cc1-c1cc(C)nn1-2                growth           %            78.9
17    O/N=C1\CCC2CCCCC2C1 (stereo not drawn)                growth           %             103
18        N=C(N)c1ccc(-c2ccc(-c3cccs3)s2)nc1                growth           %            70.1
19  COc1ccc(-c2csc(-c3cc(Cl)cc(Cl)c3Cl)n2)cc1                growth           %            97.1
20                           CC1(C)CNC(=O)N1                growth           %             103
21  CN(C1c2ccccc2Oc2ccccc21)S(=O)(=O)c1cc(Cl)ccc1Cl                growth           %            68.6
22  COc1cccc2c1C(=O)c1c(O)c3c(c(O)c1C2=O)C[C@@](O)(C(=O)COC(=O)c1cccnc1)C[C@@H]3OC1CC(N)C(O)C(C)O1 (stereo partly drawn)                growth           %             -30
23                     O=S(=O)(O)C1(O)CCCCC1                growth           %             104
24  CCOC(=O)c1sc(NC(=O)c2cc(OC)c(OC)c(OC)c2)nc1C                growth           %            97.3
25  Cc1ccc(/C(CS(=O)(=O)c2ccc(C)cc2)=N\O)cc1                growth           %             108
26     C(=C\c1nc2ccccc2s1)/c1ccc(N2CCOCC2)s1                growth           %            98.2
27    CCOC(=O)c1cc2c(n1Cc1ccccc1)-c1oncc1CC2                growth           %            54.2
28  COc1ccc(CSc2nc3cc(OC)c(OC)cc3c(=O)n2-c2ccc(OC)cc2OC)cc1                growth           %            86.4
29  CC(=O)OC1Oc2ccccc2-c2oc(=O)c(-c3cc(=O)oc4cc(O)ccc34)cc21 (stereo not drawn)                growth           %            97.1
30  C#Cc1ccc(-n2c(/C=C/c3cc(OC)c(OC)c(OC)c3)nc3ncccc3c2=O)cc1                growth           %            63.3
31  COc1cc(OC)cc(N2CCN(C(=O)Nc3nc4cc(F)ccc4nc3OC)CC2)c1                growth           %            29.2
32  COc1ccc(C(C)=O)cc1N1C(=O)C2C(C1=O)C1(c3ccccc3)C(=O)C2(c2ccccc2)C(c2ccc(C)cc2)=C1c1ccc(C)cc1 (stereo not drawn)                growth           %            13.8
33                                CCNC(=S)NN                growth           %             103
34  O=C(C=P(c1ccccc1)(c1ccccc1)c1ccccc1)c1ccc(Br)cc1                growth           %            93.5
35  CCCCC(=O)N(c1ccc(Nc2c3ccccc3nc3cc([N+](=O)[O-])ccc23)cc1)S(C)(=O)=O                growth           %              53
36     COc1ccc(-c2nnc(SCC(=O)c3ccccc3)o2)cc1                growth           %             102
37         CC(C)(C)c1ccc(OCCCCCCN2CCNCC2)cc1                growth           %            78.2
38  CN(C)c1ccc2c(c1)OC(N)=C(C#N)C2c1ccc2c(c1)CCO2 (stereo not drawn)                growth           %            47.7
39  C[N+]1=C(/C=C/c2ccc(I)cc2)C(C)(C)c2ccccc21                growth           %            89.9
40     CCOC(=O)C1=C(Nc2ccc(OC)cc2)C(N)=NC1=N                growth           %              60
41  CC1(C)CC(OCCCC[P+](c2ccccc2)(c2ccccc2)c2ccccc2)CC(C)(C)N1O                growth           %            3.46
42  COc1ccc(NC(=O)c2sc3nc4c(cc3c2N)C(O)CCC4)cc1 (stereo not drawn)                growth           %            99.7
43   O=c1ccc2nc(-c3ccccc3)nn(-c3ccccc3)c-2c1                growth           %            70.5
